biological target: IDO1 (Homo sapiens); experiment: IDO1 enzymatic assay; type: biochemical; design: His tag (N); made in house; host or cells: E. coli; details: read-out: Enzyme IC50 IDO1
Sequence (P14902 whole entry): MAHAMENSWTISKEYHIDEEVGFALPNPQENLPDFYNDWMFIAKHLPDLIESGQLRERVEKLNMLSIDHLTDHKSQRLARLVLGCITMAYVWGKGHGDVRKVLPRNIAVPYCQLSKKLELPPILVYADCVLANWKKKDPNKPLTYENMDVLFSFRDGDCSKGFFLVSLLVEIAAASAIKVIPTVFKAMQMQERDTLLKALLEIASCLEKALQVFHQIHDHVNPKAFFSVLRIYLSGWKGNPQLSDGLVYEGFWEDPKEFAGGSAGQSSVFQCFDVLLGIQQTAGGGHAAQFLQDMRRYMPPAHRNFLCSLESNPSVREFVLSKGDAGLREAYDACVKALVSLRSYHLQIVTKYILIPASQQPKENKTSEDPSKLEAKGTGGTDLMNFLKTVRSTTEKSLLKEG
pIC50: −log10 of the molar value.
recorded.endpoint: pIC50

OC(c1c(C2CC2)ccn2cncc12)C1CCN(c2ccc(Cl)c3ncccc23)CC1 (single isomer, unassigned) [Example C154a]: 7.80

A: O[C@H](c1c(C2CC2)ccc2cncn12)[C@H]1CC[C@H](c2ccc(Oc3ccccc3)cc2)CC1 (single isomer, unassigned) [Example D120a]
B: O[C@@H](c1c(C2CC2)ccn2cncc12)[C@H]1CC[C@H](c2ccnc3ccccc32)CC1 (single isomer, unassigned) [Example C130b]
Query: Pick one, A or B : lowest reported pIC50. Choose, then provide that item's label.
Response: B
(B: 5.60, A: 7.10)
